Test: Elimination half life in C57BL/6J hemophilia B mouse model liver at 28 mg/kg, sc for 2 days
Type: ADME, organism-based
Set-up: dose 28 mg/kg, route subcutaneous
assay.metric: half-life

I have this compound here, "CN[C@@H]1[C@@H](O)[C@@H](O[C@@H]2[C@@H](O)[C@H](O[C@H]3O[C@H]([C@@H](C)O)[C@@H](O)[C@H](O)[C@H]3N)[C@@H](N)C[C@H]2N)OC[C@]1(C)O" , and I need its recorded half-life.
80 h
